B1: EHMT1 (parent)
chain: FHKDCASRVNNASYCPHCGEESSK

variants of: B1; test: protein stability index of a GFP-peptide fusion (GPS, HEK-293T) (PSI 1-6); higher = more stable; conditions: c terminus: a fixed tail appended;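 note: lentivirally expressed fusions sorted by FACS into six bins by GFP to DsRed ratio, PSI derived from sequencing read proportions per bin multiplied by bin number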
The reader will find reported protein stability index values listed item by item below.
Response field accepts a number only; no unit should be typed.

Worked examples follow.
H2C | 5.31
E20I | 2.95
R8H | 4.23
S7M | 3.54
V9M | 3.37
A6Y | 2.26

**Q:** Report protein stability index for `S13D`
**A:** 3.81
